Measured IC50 accompanies every entry in the list below.
test system: A-375; assay: Antiproliferative activity against human A375 cells after 48 hrs by SRB assay; type: functional, cell-based; conditions: A-375, 48 h
Answer format: numeric, µM implied, no suffix.

Consider the worked cases shown below.
[[record]]
smiles_repr = "COc1cc(C(=O)c2cn(C)c(-c3cn(C)c4ccccc34)n2)cc(OC)c1OC"
target_of_assay = "A-375"
measured_value = 0.0188

[[record]]
smiles_repr = "COc1cc(C(=O)c2c[nH]c(-c3cn(S(=O)(=O)c4ccccc4)c4ccccc34)n2)cc(OC)c1OC"
target_of_assay = "A-375"
measured_value = 0.414


Answer with reported IC50 of `COc1cc(C(=O)c2cnc(-c3c[nH]c4ccccc34)[nH]2)cc(OC)c1OC`
0.0032

Entry `COc1cc2c(c(OC)c1OC)-c1ccc(OC)c(=O)cc1[C@@H](NC(C)=O)CC2` needs its IC50 filled in; supply it.
0.0206

Output measured IC50 for this item: `COc1cc(C(=O)c2c[nH]c(-c3coc4ccccc34)n2)cc(OC)c1OC`
0.0534

Using known records, supply IC50 for `COc1cc(C(=O)c2c[nH]c(-c3csc4ccccc34)n2)cc(OC)c1OC`
0.041

====

The following compounds are listed with their measured inhibition values.
species: Bos taurus; assay: Inhibition of bovine brain tubulin polymerization at 10 uM measured for every 1 min for 20 mins by spectrophotometer analysis

[[record]]
smiles_repr = "COc1cc(C(=O)c2c[nH]c(-c3cn(S(=O)(=O)c4ccccc4)c4ccccc34)n2)cc(OC)c1OC"
endpoint = "inhibition"
measured_value = "85%"


Give the value of inhibition reported for the following: `COc1cc(C(=O)c2c[nH]c(-c3coc4ccccc34)n2)cc(OC)c1OC`
60%

Quick one: give measured inhibition for `COc1cc(C(=O)c2c[nH]c(-c3csc4ccccc34)n2)cc(OC)c1OC`
30%

Tell me inhibition reported for `COc1cc(C(=O)c2cn(C)c(-c3cn(C)c4ccccc34)n2)cc(OC)c1OC`
80%

====

species: Bos taurus; test: Inhibition of bovine brain tubulin polymerization measured for every 1 min for 20 mins by spectrophotometer analysis
ENDPOINT: inhibition

[[record]]
smiles_repr = "COc1cc(C(=O)c2c[nH]c(-c3coc4ccccc34)n2)cc(OC)c1OC"
measured_value = "Dose-dependent effect"

[[record]]
smiles_repr = "COc1cc(C(=O)c2cn(C)c(-c3cn(C)c4ccccc34)n2)cc(OC)c1OC"
measured_value = "Dose-dependent effect"

[[record]]
smiles_repr = "COc1cc(C(=O)c2c[nH]c(-c3cn(S(=O)(=O)c4ccccc4)c4ccccc34)n2)cc(OC)c1OC"
measured_value = "Dose-dependent effect"

[[record]]
smiles_repr = "COc1cc(C(=O)c2cnc(-c3c[nH]c4ccccc34)[nH]2)cc(OC)c1OC"
measured_value = "Dose-dependent effect"


Next, consider the following molecule.
Give the value of inhibition reported for the following: `COc1cc(C(=O)c2c[nH]c(-c3csc4ccccc34)n2)cc(OC)c1OC`
Dose-dependent effect

====

test system: DU-145; test: Antiproliferative activity against human DU145 cells after 48 hrs by SRB assay; assay type: functional, cell-based; settings: DU-145, 48 h
ENDPOINT: IC50 (µM)
The reply should contain only the number, in µM.

[[record]]
smiles_repr = "COc1cc(C(=O)c2c[nH]c(-c3coc4ccccc34)n2)cc(OC)c1OC"
target_of_assay = "DU-145"
measured_value = 0.045


Give me measured IC50, please, for this compound: `COc1cc(C(=O)c2cnc(-c3c[nH]c4ccccc34)[nH]2)cc(OC)c1OC`
0.0039

Check the records and state IC50 for `COc1cc2c(c(OC)c1OC)-c1ccc(OC)c(=O)cc1[C@@H](NC(C)=O)CC2`
0.0112

Report IC50, nothing else, for this compound: `COc1cc(C(=O)c2c[nH]c(-c3cn(S(=O)(=O)c4ccccc4)c4ccccc34)n2)cc(OC)c1OC`
0.189

Report IC50, nothing else, for this compound: `COc1cc(C(=O)c2cn(C)c(-c3cn(C)c4ccccc34)n2)cc(OC)c1OC`
0.0765

Tell me measured IC50 for `COc1cc(C(=O)c2c[nH]c(-c3csc4ccccc34)n2)cc(OC)c1OC` please.
0.0512
